So I've got a bunch of compounds here, and I need their EC50 values.
# Test system: MCF7
# assay_name: Cytotoxicity against human MCF7 cells
# Type: functional
# condition_details: Homo sapiens, MCF7; read-out: ED50 (the source's name)
Answers are plain numbers, in µg/mL.

In the examples that follow, each entry is paired with its recorded EC50.
Answer with reported EC50 of CCCCCCCCCCCC[C@@H](O)[C@H]1CC[C@H]([C@H](O)CCCC(O)C(O)CCCCC[C@@H]2CC(CC(C)=O)C(=O)O2)O1 (some centres not stated)
0.61

Give the value of EC50 reported for the following: CCCCCCCCCC[C@@H](O)[C@H]1CC[C@H]([C@H]2CC[C@H]([C@H](O)CCCC[C@H](O)CCCCC[C@@H](O)CC3=C[C@H](C)OC3=O)O2)O1
0.33

Give recorded EC50. CC[C@H](O)[C@H](O)CCCCCC[C@H](O)[C@H]1CC[C@H]([C@H]2CC[C@H]([C@H](O)CCCCCCCCCCCCC3=C[C@H](C)OC3=O)O2)O1
0.5

Consider the following items and state reported EC50 for each.
1. CCCCCCCCCCCC[C@H](O)[C@@H](O)CC[C@H](O)[C@@H]1CC[C@@H](C[C@H](O)CCCCC[C@@H](O)CC2=C[C@H](C)OC2=O)O1
2. CCCCCCCCCC[C@@H](O)[C@H]1CC[C@H]([C@H]2CC[C@H]([C@H](O)CCCCCC(=O)CCCC[C@@H]3CC(CC(C)=O)C(=O)O3)O2)O1 (mixture of isomers)
3. CCCCCCCCCCCC/C=C\CC[C@@H](O)[C@H](O)CCCCCCC(=O)CCCCCCCC1=C[C@H](C)OC1=O
4. CCCCCCCCCCCC[C@@H](O)[C@@H](O)CC[C@H](O)[C@@H]1CC[C@@H](CCC[C@@H](O)[C@H](O)CC[C@@H](O)CC2=C[C@H](C)OC2=O)O1 [MURIHEXOCIN]
5. CCCCCCCCCCCC[C@@H](O)[C@H]1CC[C@H]([C@H](O)CCCCCC[C@H](O)CCCCC[C@@H]2CC(CC(C)=O)C(=O)O2)O1 (mixture of isomers)
6. CCCCCCCCCCCC[C@@H](O)[C@H]1CC[C@@H]([C@@H]2CC[C@@H](CCCCCCC[C@@H](O)CC3=C[C@H](C)OC3=O)O2)O1

1. 3.6
2. 0.26
3. 2.8
4. 3.8
5. 3.2
6. 1.1

# map each compound to its EC50
1. CCCCCCCCCCCCCC[C@H](O)CCCCCCC[C@H](O)CCCCC[C@@H](O)CC1=C[C@H](C)OC1=O
2. CCCCCCCCCCCC[C@@H](O)[C@H](O)CC[C@H](O)[C@@H]1CC[C@@H](C[C@H](O)CCCCC[C@@H](O)CC2=C[C@H](C)OC2=O)O1

1. 3.4
2. 18
